test system: Intestinal Phosphate Absorption; test: Intestinal phosphate absorption: oral 33P dose after gavage of phosphate binder; type: in vivo, rats; settings: 10 mg calcium, 14.4 mg Renagel or novel binder (Table 1); 10 mM KH2PO4; 60 min
value type: serum 33P levels compared with water (FIG. 3B)

[
  {
    "molecule": "CC(=O)[O-].CC(=O)[O-].[Ca+2] [calcium, Calcium acetate, reference compound]",
    "test value": "significantly reduced"
  },
  {
    "molecule": "Cl.Cl.Cl.Cl.Cl.Cl.NCCCN(CCCN)CCCCN(CCCN)CCCN",
    "test value": "significantly reduced"
  },
  {
    "molecule": "Cl.Cl.Cl.Cl.NC[C@@H](N)[C@@H](N)CN",
    "test value": "significantly reduced"
  }
]
